Tested on: Septoria tritici
Experiment: In vivo preventive test on Septoria tritici (leaf spot on wheat)
Conditions: 500 ppm; wheat plants sprayed 24 hours before contamination; grading 21 to 28 days after contamination vs control plants
Task for the reader: assign each of the following compounds its reported % of efficacy (protection).
Answer as a quantity: numeral, then unit.

// query % of efficacy (protection) value for entry C#Cc1cnc2c(Cl)cc(C3=NOC(C)(C(=O)NCc4cn(CC)nc4C)C3)cc2c1 (stereo not shown) [compound 550] 100%

So what does the record say about % of efficacy (protection) for CCCn1cc(CNC(=O)C2(OC)CC(c3ccc4ncc(I)cc4c3)=NO2)c(C)n1 (racemic) [compound 449] ? 98%

GET /values?readout=% of efficacy (protection)&item= C#Cc1cnc2ccc(C3=NOC(C)(C(=O)NCC4CCOc5ccccc54)C3)cc2c1 (stereo not shown) [compound 223] 71%

Reported % of efficacy (protection), compound CCOCCCNC(=O)C1(C(C)O)CC(c2ccc3ncc(Br)cc3c2)=NO1 (stereo not shown) [compound 560] : ____ 97%

Fill in: % of efficacy (protection) of C#Cc1cnc2ccc(C3=NOC(C)(C(=O)NCc4ccccc4)C3)cc2c1 (stereo not shown) [compound 169] is ___ 100%

Requested read-out: % of efficacy (protection). Entry: CC(NC(=O)C1(C)CC(c2ccc3ncc(Br)cc3c2)=NO1)C(F)(F)F (stereo not shown) [compound 345] 100%

Recorded % of efficacy (protection) for C#Cc1cnc2ccc(C3=NOC(C(=O)NCc4cn(CC)nc4C)(C(F)F)C3)cc2c1 (stereo not shown) [compound 613] , please? 79%

Which % of efficacy (protection) value belongs to C=CC1(C(=O)NC(C)C)CC(c2ccc3ncc(Br)cc3c2)=NO1 (stereo not shown) [compound 734] ? 100%

What value of % of efficacy (protection) has been recorded for this entry: CCOCCCNC(=O)C1(C(F)(F)F)CC(c2ccc3ncc(Br)cc3c2)=NO1 (stereo not shown) [compound 105] 75%

Using the record for C#Cc1cnc2ccc(C3=NOC(C)(C(=S)NCc4cnc(C)cn4)C3)cc2c1 (stereo not shown) [compound 481] , report its % of efficacy (protection). 86%

Which % of efficacy (protection) value is on record for C#Cc1cnc2ccc(C3=NOC(C)(C(=O)NCc4cccs4)C3)cc2c1 (stereo not shown) [compound 162] ? 86%

Given C#Cc1cnc2ccc(C3=NOC(OC)(C(=O)NC(C)CC(=O)OC)C3)cc2c1 (stereo not shown) [compound 512] , state its recorded % of efficacy (protection). 97%

% of efficacy (protection) lookup needed for C#Cc1cnc2ccc(C3=NOC(C)(C(=O)NCc4ccc(-c5csnn5)cc4)C3)cc2c1 (stereo not shown) [compound 86] , thanks. 75%

What value of measured % of efficacy (protection) is listed for C#Cc1cnc2ccc(C3=NOC(C)(C(=O)NCc4cnn(C)c4)C3)cc2c1 (stereo not shown) [compound 180] ? 100%

Record request: % of efficacy (protection) value, item CCn1cc(CNC(=O)C2(C)CC(c3cc4cc(Br)cnc4c(F)c3OC)=NO2)c(C)n1 (stereo not shown) [compound 29] 100%

Which % of efficacy (protection) value belongs to C#Cc1cnc2ccc(C3=NOC(C)(C(=S)NCc4cnn(C)c4C)C3)cc2c1 (racemic) [compound 443] ? 88%

Consider the compound C#Cc1cnc2ccc(C3=NOC(C)(C(=O)NC4CCOCC4)C3)cc2c1 (stereo not shown) [compound 502] and give its measured % of efficacy (protection). 100%

# % of efficacy (protection) lookup, item CC(C)NC(=O)C1(C(F)(F)F)CC(c2ccc3ncc(Br)cc3c2)=NO1 (stereo not shown) [compound 36] 100%

So what's the measured % of efficacy (protection) for this one? Cn1cc(NC(=O)C2(C)CC(c3ccc4ncc(Br)cc4c3)=NO2)cn1 (racemic) [compound 434] 100%
